# System: SNB-75 CNS
# Assay overview: NCI tumour cell line growth inhibition, 48 h
Recorded metric: TGI

Requested read-out: TGI. Entry: C=CCOCCCCC(C(C)=O)C(=O)OC (centres undefined)
> 100 µM

Any idea what its TGI is? The compound is CC(C)(C)C1CCC2(CC1)c1[nH]c3ccccc3c1C1(CCC(C(C)(C)C)CC1)c1[nH]c3ccccc3c12 (centres undefined)
> 100 µM

Sample Cc1cc2c(cc1C)[n+](=O)c(C(=O)C/C(=N/NC(=O)CC#N)C(=O)Nc1ccccc1C(F)(F)F)c(C)n2[O-] — what was its TGI?
> 100 µM

I would be grateful if you could share the reported TGI for CNC(=O)N(CCC#N)[C@H]1CCCC[C@@H]1N(C(=O)NC)c1ccccc1 .
> 100 µM

// lookup TGI for CCOC(=O)[C]1([Bi]([CH3])[CH3])N=NC(C(=O)OC)=C1C(=O)OC (centres undefined)
29.9 µM

Need TGI, item C[C@@H]1OC(O)[C@@H](F)[C@H](O)[C@@H]1O (some centres undefined)
> 100 µM

I'd like to know its TGI. The compound in question is C=C1CC(C)(c2ccc(Nc3nc4ccccc4c4occc34)cc2)OC1=O (centres undefined)
6.56 µM

Which value of TGI has been reported for CC(C)c1nc(CN(C)C(=O)N[C@H](C(=O)N[C@@H](Cc2ccccc2)C[C@H](O)[C@H](Cc2ccccc2)NC(=O)OCc2cncs2)C(C)C)cs1 in the records?
54.3 µM

More entries:
# query: TGI of entry CN(C)S(=O)(=O)Nc1nnc(S(N)(=O)=O)s1
> 100 µM

----------
# Tested on: DMS 114 small cell lung
# Assay overview: NCI tumour cell line growth inhibition, 48 h
Kindly state TGI for each of the entries shown.

As a guide, the following entries are already answered.
Hi! What's the reported TGI for O=c1/c(=C/c2ccco2)sc2nc3ccccc3n12 on DMS 114 small cell lung?
> 100 µM

Param readout= TGI; system= DMS 114 small cell lung; entry= O=C(/C=C/c1c(O)ccc2ccccc12)c1cccc(O)c1 ; returns value.
> 77.3 µM

Lab note: need TGI for CCC[CH2][Sn]1([CH2]CCC)[O]Cc2nc(C)ccc2[O]1 on DMS 114 small cell lung, anyone have it?
9.3 µM

Record lookup: for DMS 114 small cell lung, what TGI belongs to O=C(/N=N/C(=O)OCc1ccccc1)OCc1ccccc1 ?
> 100 µM

For DMS 114 small cell lung, provide TGI of CC(C)C(=O)NC(=S)Nc1ccc([N+](=O)[O-])cc1C#N please.
> 100 µM

What value of TGI on DMS 114 small cell lung does O=C1O[C@@H](c2ccc3c(c2)OCO3)C2C(=O)O[C@@H](c3ccc4c(c3)OCO4)C12 (stereo partly specified) have?
> 100 µM

Query the reported TGI for DMS 114 small cell lung; item: O=C(O)CNS(=O)(=O)c1ccc(NCc2ccccc2)cc1
> 100 µM

Query the reported TGI for DMS 114 small cell lung; item: CC(C)(C)C1C=C(Sc2ccccc2)C(=O)O1 (stereo unspecified)
> 100 µM

Quick check: TGI on DMS 114 small cell lung, item Cc1cc2c(cc1C)[n+](=O)c(C(=O)C/C(=N/NC(=O)CC#N)C(=O)Nc1ccccc1C(F)(F)F)c(C)n2[O-] ?
> 100 µM

Lab request: please report TGI under test system DMS 114 small cell lung for O=C(O)C(CO)NC(=O)n1c2ccccc2c2ccccc21 (stereo unspecified)
> 100 µM

Further cases:
Recorded TGI for NC(=O)C(=O)N/N=C(\CC1(O)C(=O)Nc2ccccc21)c1ccc2ccccc2c1 (stereo unspecified) with DMS 114 small cell lung, please?
55.4 µM

----------
# Tested on: U251 CNS
# Assay overview: NCI tumour cell line growth inhibition, 48 h
Recorded metric: TGI

Which TGI is listed for O=c1c2cc([N+](=O)[O-])ccc2sc2ccsc12 ?
> 100 µM

Given the entry COCC1OC(N2C(=O)NC(=O)[C@@H]3C=C4CCCCC4=C[C@@H]32)C(OC)C1OC (stereo not given in full) , report its measured TGI.
> 100 µM

Dear colleague, I am looking for the recorded TGI of the following compound: COC(=O)C1CC2(c3ccccc3)C(=O)c3ccccc3N2O1 (stereo not given)
> 100 µM

Provide TGI for all items below, preserving their order.
1. C[C@@H]1OC(O)[C@@H](F)[C@H](O)[C@@H]1O (stereo not given in full)
2. CC1(C)OC2[C@@H](CNC(=O)NC(=O)NC(=O)CI)O[C@@H](n3cnc4c(NC(=O)Nc5ccccc5)ncnc43)[C@H]2O1 (stereo not given in full)

1. > 100 µM
2. 20.4 µM

----------
# System: MDA-MB-435
# Assay overview: NCI tumour cell line growth inhibition, 48 h
Would you mind telling me the reported TGI of each entry?
Numbers only, in µM.

Worked set:
Dear colleague, I am looking for the recorded TGI of the following compound: C=CCCCCCCCCC(=O)[O][Sn]([CH2]CCC)([CH2]CCC)[CH2]CCC
0.319

Consider the compound shown here: Nc1nc(Cl)c2ncn(Cc3ccc(C45CC6CC(CC(C6)C4)C5)c(O)c3)c2n1 What is its recorded TGI?
23.2

Here are 8 compounds. What values of TGI were reported for them?
1. Oc1ccc2ccccc2c1N=Nc1nccs1
2. CCC(C)c1c(Cl)nc(Cl)nc1Cl (stereo unspecified)
3. O=C1CCCCN1CCCCC#Cc1ccccc1C#Cc1ccc([N+](=O)[O-])cc1
4. COc1ccc(NC2=CC(=O)C(=O)c3ccccc32)nn1
5. Brc1ccc2c(-c3csc(-c4c[nH]c5ccc(Br)cc45)n3)c[nH]c2c1
6. CC(=O)OC[C@]1(C)C=C2C(=O)[C@](C)(O)C3(CC3)C(C)=C2[C@H]1O
7. COC1/C=C\C=C(/C)C(=O)NC2=CC(=O)C(=O)C(=C2O)CC(C)CC(OC)C(O)C(C)/C=C(\C)C1OC(N)=O (stereo unspecified)
8. O=c1[nH]ncc(Br)c1Br

[27.9, 9.1, 4.83, 1.32, 17.7, 0.587, 11.8, 6.2]

----------
# Test system: A549 NSCLC
# Assay overview: NCI tumour cell line growth inhibition, 48 h; in the data active = GI50 below about 0.43 µM; inactive = the rest
// classify into active, inactive

// below: answered compounds
Recorded call for O=C(N/N=C/c1ccccc1O)c1ccccc1Nc1ccnc(C(F)(F)F)c1 ?
inactive

Test call, this compound: CC[C@]1(O)C[C@@H]2CN(CCc3c([nH]c4ccccc34)[C@@](C(=O)OC)(c3cc4c(cc3OC)N(C)[C@H]3[C@@](O)(C(=O)OC)[C@H](OC(C)=O)[C@]5(CC)C=CCN6CC[C@]43[C@@H]65)C2)C1
active

Could you check what this test reported for CS(=O)(=O)c1ccc([C@H]2O[C@@H](CO)C[C@]2(O)c2ccc(S(C)(=O)=O)cc2)cc1 ?
inactive

Now turn to the next compound.
Tell me the recorded outcome of this test for N#CSc1c[nH]c2cccc(/C=C/C(=O)/C=C(/C=C/c3cccc4[nH]cc(SC#N)c34)OB(F)F)c12 .
inactive

----------
# System: PC-3 prostate
# Assay overview: NCI tumour cell line growth inhibition, 48 h; in the data active = GI50 below about 0.43 µM; inactive = the rest
Field 'call' accepts 1 = active, -1 = inactive

Hi team, can someone confirm the assay call for Nc1nc(Cl)c2ncn(Cc3ccc(C45CC6CC(CC(C6)C4)C5)c(O)c3)c2n1 ?
-1

GET /call?item= CC[CH2][Sn]([CH2]CC)([O]C(=O)c1cccnc1SC)[O][Sn]([CH2]CC)([CH2]CC)[O]C(=O)c1cccnc1SC returns the recorded outcome of this test.
-1

Hi team, can someone confirm the assay call for FC(F)(F)c1cccc(Nc2nccc(-c3cnn4nc(-c5ccccc5)ccc34)n2)c1 ?
-1

Recorded test outcome, item O=C(N/N=C/c1ccccc1O)c1ccccc1Nc1ccnc(C(F)(F)F)c1
1

Per the records of this test, what outcome belongs to Nc1cc(N)c2nc(-c3ccccc3)c(Nc3ccc(Cl)c(Cl)c3)nc2c1 ?
-1

***
Which result was noted for this molecule in the test: O=C1Nc2c(C(F)(F)F)cccc2[C@]1(c1ccc(O)cc1)c1ccc(OC(F)(F)F)cc1
-1

What was the test verdict on CC[C@]1(O)C[C@@H]2CN(CCc3c([nH]c4ccccc34)[C@@](C(=O)OC)(c3cc4c(cc3OC)N(C)[C@H]3[C@@](O)(C(=O)OC)[C@H](OC(C)=O)[C@]5(CC)C=CCN6CC[C@]43[C@@H]65)C2)C1 ?
1

Field: outcome | Entry: COc1cc(C2=NOC(c3cc(OC)c(OC)c(OC)c3)C2)ccc1OCCCCOc1cc2c(cc1OC)C(=O)N1CCC[C@H]1C=N2 (stereo not given in full)
1

Fill in: this test's call for O=C(/C(Br)=C/c1ccccc1)c1ccccc1 is ___
-1

Record request — test call for CC1=CC(=Nc2ccc(N(CCCl)CCCl)cc2)C=C(C)C1=O
-1

Assay outcome for Oc1ccc(CN2CCC(N3CCCCC3)CC2)c2cccnc12 : what was it?
-1

Recorded test call requested for CN1CCN(C(=O)OCc2nc3c(N4CCOCC4)nc(Cl)nc3n2C)CC1
-1

Can you look up the reported call for OCc1c[nH]c2ccccc12 for me?
-1

What is the recorded call for this molecule in the test? C=CC(=O)N1CC2(CCN(c3nc(OC4CCN(CCCOC)CC4)nc4c(OCC(F)(F)F)c(-c5c(C)ccc6[nH]ncc56)c(C5CC5)cc34)CC2)C1
-1

Call for entry O=c1[nH]ncc(Br)c1Br :
-1

These entries and their values trace back to PubChem BioAssay (NCI).
